Please respond with reported CLH for every item in the list.
test: Metabolic stability in human liver microsome assessed as intrinsic clearance at 0.1 uM in presence of NADPH incubated upto 60 mins by LC-MS/MS analysis; type: ADME; conditions: microsomes, 1 h
Numbers only, in mL/min/g.

Here are 6 molecules together with their reported answers.
{"MOLECULE": "CNc1cc(F)cc2c1[nH]c1nc(Oc3cnc(C)nc3)nc(N3CC(=C(C)[C@@H](C)N)C3)c12", "READING UNIT": "mL/min/g", "CLH": 28.4}
{"MOLECULE": "CCC(CO)=C1CN(c2nc(Oc3cnc(C)nc3)nc3[nH]c4c(NC)cc(F)cc4c23)C1", "READING UNIT": "mL/min/g", "CLH": 51.4}
{"MOLECULE": "CNc1cc(F)cc2c1[nH]c1nc(Oc3cnc(C)nc3)nc(N3CC(=C(CN)C(C)C)C3)c12", "READING UNIT": "mL/min/g", "CLH": 55.2}
{"MOLECULE": "[2H]C([2H])([2H])Nc1cc(F)cc2c1[nH]c1nc(Oc3cnc(C)nc3)nc(N3CC(=C(CC)CN)C3)c12", "READING UNIT": "mL/min/g", "CLH": 20}
{"MOLECULE": "CNc1cc(F)cc2c1[nH]c1nc(Oc3cnc(C)nc3)nc(N3CC(=C(C)C(C)N)C3)c12 (racemic)", "READING UNIT": "mL/min/g", "CLH": 4.25}
{"MOLECULE": "CCC(CN)=C1CN(c2nc(Oc3cnc(CO)nc3)nc3[nH]c4c(NC)cc(F)cc4c23)C1", "READING UNIT": "mL/min/g", "CLH": 36.3}

The following molecules each have a reported value; give each one's CLH.
1. [2H]C([2H])([2H])Nc1cc(F)cc2c1[nH]c1nc(Oc3cnc(C)nc3)nc(N3CC(=C(C)C(C)N)C3)c12 (configuration not stated)
2. [2H]C([2H])([2H])Nc1cc(F)cc2c1[nH]c1nc(Oc3cnc(C)nc3)nc(N3CC(=C(C)[C@@H](C)N)C3)c12
3. CCC(CN)=C1CN(c2nc(Oc3cnc(C(C)O)nc3)nc3[nH]c4c(NC)cc(F)cc4c23)C1 (configuration not stated)
4. CCC(CN)=C1CN(c2nc(Oc3cnc(C)nc3)nc3[nH]c4c(NC)cc(F)cc4c23)C1
5. CNc1cc(F)cc2c1[nH]c1nc(Oc3cnc(C)nc3)nc(N3CC(=CC(C)N)C3)c12 (configuration not stated)
6. CCCC(CN)=C1CN(c2nc(Oc3cnc(C)nc3)nc3[nH]c4c(NC)cc(F)cc4c23)C1

[10.1, 11.7, 38.4, 14.3, 19.6, 44.3]

* * *

Please respond with reported MIC for every item in the list.
system: Acinetobacter baumannii; test: Antibacterial activity agains OXA23-producing multidrug resistant Acinetobacter baumannii assessed as reduction in bacterial growth incubated for 18 to 20 hrs by CLSI based microdilution method; type: functional; details: time 18-20 hrs
One number for each entry, in µg/mL.

{"COMPOUND": "CNc1cc(F)cc2c1[nH]c1nc(Oc3cnc(C)nc3)nc(N3CC(=C(C)[C@@H](C)N)C3)c12", "READING UNIT": "µg/mL", "MIC": 0.25}

The following compounds each have a reported value; give each one's MIC.
1. CCNc1cc(F)cc2c1[nH]c1nc(Oc3cnc(C)nc3)nc(N3CC(=C(C)[C@@H](C)N)C3)c12
2. [2H]C([2H])([2H])Nc1cc(F)cc2c1[nH]c1nc(Oc3cnc(C)nc3)nc(N3CC(=C(C)C(C)N)C3)c12 (stereo not given)
3. CCCC(CN)=C1CN(c2nc(Oc3cnc(C)nc3)nc3[nH]c4c(NC)cc(F)cc4c23)C1
4. C=CCC(CN)=C1CN(c2nc(Oc3cnc(C)nc3)nc3[nH]c4c(NC)cc(F)cc4c23)C1
5. CC(C)(O/N=C(\C(=O)N[C@@H]1C(=O)N2C(C(=O)[O-])=C(C[N+]3(CCNC(=O)c4ccc(O)c(O)c4Cl)CCCC3)CS[C@H]12)c1csc(N)n1)C(=O)O [CEFIDEROCOL]
6. CCC(CN)=C1CN(c2nc(Oc3cnc(C)nc3)nc3[nH]c4c(NC)cc(F)cc4c23)C1

2
0.25
0.5
0.25
2
0.125

* * *

Please respond with reported CLH for every item in the list.
experiment: Metabolic stability in rat liver microsome assessed as intrinsic clearance at 0.1 uM in presence of NADPH incubated upto 60 mins by LC-MS/MS analysis; type: ADME; conditions: microsomes, 1 h
The answer consists of two parts: a number and, after it, its unit.

Here are 3 molecules together with their reported answers.
{"MOLECULE": "CNc1cc(F)cc2c1[nH]c1nc(Oc3cnc(C)nc3)nc(N3CC(=CC(C)N)C3)c12 (centres undefined)", "REPORTED": "180.9 mL/min/g"}
{"MOLECULE": "[2H]C([2H])([2H])Nc1cc(F)cc2c1[nH]c1nc(Oc3cnc(C)nc3)nc(N3CC(=C(CC)CN)C3)c12", "REPORTED": "63.9 mL/min/g"}
{"MOLECULE": "CCC(CN)=C1CN(c2nc(Oc3cnc(C(C)O)nc3)nc3[nH]c4c(NC)cc(F)cc4c23)C1 (centres undefined)", "REPORTED": "138.4 mL/min/g"}

--- query ---
// lookup CLH for [2H]C([2H])([2H])Nc1cc(F)cc2c1[nH]c1nc(Oc3cnc(C)nc3)nc(N3CC(=C(C)C(C)N)C3)c12 (centres undefined)
104 mL/min/g

* * *

test system: Acinetobacter baumannii; experiment: Antibacterial activity agains OXA23-producing multidrug resistant Acinetobacter baumannii assessed as reduction in bacterial growth incubated for 18 to 20 hrs by CLSI based microdilution method; type: functional; settings: time 18-20 hrs
READOUT: MIC (µg/mL)
Give bare numbers, in µg/mL.

{"MOLECULE": "[2H]C([2H])([2H])Nc1cc(F)cc2c1[nH]c1nc(Oc3cnc(C(C)O)nc3)nc(N3CC(=C(CC)CN)C3)c12 (centres undefined)", "MIC [µg/mL]": 2}
{"MOLECULE": "[2H]C([2H])([2H])Nc1cc(F)cc2c1[nH]c1nc(Oc3cnc(C)nc3)nc(N3CC(=C(C)[C@@H](C)N)C3)c12", "MIC [µg/mL]": 0.25}

// lookup MIC for CNc1cc(F)cc2c1[nH]c1nc(Oc3cnc(C)nc3)nc(N3CC4CCNC4C3)c12 (racemic)
0.5

* * *

target: hERG (KCNH2) potassium channel (Homo sapiens, UniProt Q12809); assay: Inhibition of hERG potassium channel assessed as maximum inhibition rate at 3 uM at -80 mV holding potential incubated for 120 seconds by whole cell-automated voltage clamp analysis assay relative to control; assay type: toxicity; conditions: time 120 sec
Sequence (Q12809 whole entry): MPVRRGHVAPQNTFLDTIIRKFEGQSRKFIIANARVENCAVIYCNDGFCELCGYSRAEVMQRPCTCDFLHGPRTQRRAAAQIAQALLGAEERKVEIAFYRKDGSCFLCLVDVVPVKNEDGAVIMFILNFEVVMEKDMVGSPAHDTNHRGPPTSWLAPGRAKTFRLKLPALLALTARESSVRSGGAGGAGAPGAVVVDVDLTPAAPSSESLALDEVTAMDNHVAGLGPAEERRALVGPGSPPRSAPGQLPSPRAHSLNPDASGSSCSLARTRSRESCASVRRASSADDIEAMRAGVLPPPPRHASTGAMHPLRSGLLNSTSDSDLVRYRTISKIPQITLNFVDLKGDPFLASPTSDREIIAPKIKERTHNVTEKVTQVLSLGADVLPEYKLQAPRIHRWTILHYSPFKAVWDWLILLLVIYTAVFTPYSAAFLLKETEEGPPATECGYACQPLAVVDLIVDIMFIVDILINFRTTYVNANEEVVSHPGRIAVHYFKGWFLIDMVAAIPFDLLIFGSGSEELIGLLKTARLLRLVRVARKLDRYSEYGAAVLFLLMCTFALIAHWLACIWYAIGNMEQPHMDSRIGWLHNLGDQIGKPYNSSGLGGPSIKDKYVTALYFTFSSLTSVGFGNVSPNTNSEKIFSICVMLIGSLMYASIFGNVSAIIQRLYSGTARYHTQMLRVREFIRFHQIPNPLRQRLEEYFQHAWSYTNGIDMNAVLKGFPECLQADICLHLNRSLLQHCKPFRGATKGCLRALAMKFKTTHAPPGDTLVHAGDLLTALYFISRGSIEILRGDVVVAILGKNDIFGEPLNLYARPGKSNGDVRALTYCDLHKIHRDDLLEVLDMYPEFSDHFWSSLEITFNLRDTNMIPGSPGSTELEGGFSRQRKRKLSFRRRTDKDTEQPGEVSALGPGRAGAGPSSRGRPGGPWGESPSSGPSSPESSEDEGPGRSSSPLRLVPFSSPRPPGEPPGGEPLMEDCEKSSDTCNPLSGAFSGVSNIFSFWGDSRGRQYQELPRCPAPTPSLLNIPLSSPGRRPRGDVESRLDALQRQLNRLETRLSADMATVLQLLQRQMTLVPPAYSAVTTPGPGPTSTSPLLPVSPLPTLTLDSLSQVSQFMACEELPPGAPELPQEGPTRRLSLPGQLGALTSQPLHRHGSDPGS
READOUT: inhibition at 2 min, 3 µM (%)
Give bare numbers, in %.

// lookup inhibition at 2 min, 3 µM for COc1cc(N)c(Cl)cc1C(=O)NC1CCN(CCCOc2ccc(F)cc2)CC1OC (stereo unspecified) [CISAPRIDE MONOHYDRATE]
97.7

* * *

Please respond with reported MRT for every item in the list.
assay: MRT in Sprague-Dawley rat at 5 mg/kg, iv measured upto 24 hrs by LC-MS/MS analysis; type: ADME, organism-based; conditions: in vivo
Answers are plain numbers, in h.

Here are 3 molecules together with their reported answers.
{"MOLECULE": "CCNc1cc(F)cc2c1[nH]c1nc(Oc3cnc(C)nc3)nc(N3CC(=C(C)[C@@H](C)N)C3)c12", "MRT, h": 4.3}
{"MOLECULE": "[2H]C([2H])([2H])Nc1cc(F)cc2c1[nH]c1nc(Oc3cnc(C)nc3)nc(N3CC(=C(C)[C@@H](C)N)C3)c12", "MRT, h": 5.6}
{"MOLECULE": "[2H]C([2H])([2H])Nc1cc(F)cc2c1[nH]c1nc(Oc3cnc(C)nc3)nc(N3CC(=C(C)C(C)N)C3)c12 (centres undefined)", "MRT, h": 5.9}

--- query ---
// lookup MRT for `CNc1cc(F)cc2c1[nH]c1nc(Oc3cnc(C)nc3)nc(N3CC(=C(C)[C@@H](C)N)C3)c12`
7.8

* * *

experiment: Metabolic stability in rat liver microsome assessed as elimination half life at 0.1 uM in presence of NADPH incubated upto 60 mins by LC-MS/MS analysis; assay type: ADME; settings: liver microsomes, read-out: beta t1/2
READOUT: half-life at 0.1 µM

Here are 3 compounds together with their reported answers.
{"COMPOUND": "CCC(CN)=C1CN(c2nc(Oc3cnc(C)nc3)nc3[nH]c4c(NC)cc(F)cc4c23)C1", "half-life at 0.1 µM": "28.3 min"}
{"COMPOUND": "CNc1cc(F)cc2c1[nH]c1nc(Oc3cnc(C)nc3)nc(N3CC(=C(C)C(C)N)C3)c12 (racemic)", "half-life at 0.1 µM": "16.7 min"}
{"COMPOUND": "[2H]C([2H])([2H])Nc1cc(F)cc2c1[nH]c1nc(Oc3cnc(C)nc3)nc(N3CC(=C(CC)CN)C3)c12", "half-life at 0.1 µM": "32.9 min"}

--- query ---
// lookup half-life at 0.1 µM for `CCCC(CN)=C1CN(c2nc(Oc3cnc(C)nc3)nc3[nH]c4c(NC)cc(F)cc4c23)C1`
24.9 min
